These measurements were taken from BindingDB's records for doi:10.1002/cbic.201600673.

biological target: Galectin-7 (Homo sapiens); experiment: Fluorescence Polarization Assay; settings: 4 °C
Sequence (P47929 whole entry): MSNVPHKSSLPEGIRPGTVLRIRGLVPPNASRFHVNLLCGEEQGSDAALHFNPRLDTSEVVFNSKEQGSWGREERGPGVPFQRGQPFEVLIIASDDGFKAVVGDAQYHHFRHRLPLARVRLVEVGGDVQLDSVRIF
property: Kd (µM)

compound | property | assay-value
COc1cccc(C(=O)NC2C(O)[C@H](O[C@@H]3OC(CO)[C@H](O)C(OCc4ccc5ccccc5c4)C3O)C(CO)O[C@H]2OCCNC(=O)CCCCCN2C(=O)C=CC2=O)c1 (some centres undefined) | Kd | 21
COc1cccc(C(=O)CC2C(O)[C@H](O[C@@H]3OC(CO)[C@H](O)C(OCc4ccc5ccccc5c4)C3O)C(CO)O[C@H]2OCCN=[N+]=[N-])c1 (some centres undefined) | Kd | 90
OCC1O[C@@H](S[C@@H]2OC(CO)[C@H](O)C(n3cc(-c4cccc(F)c4)nn3)C2O)C(O)C(n2cc(-c3cccc(F)c3)nn2)[C@H]1O (some centres undefined) | Kd | 32
COc1cccc(COC2C(O)[C@H](O[C@@H]3C(CO)O[C@@H](N=[N+]=[N-])C(NC(=O)c4cccc(OC)c4)C3O)OC(CO)[C@@H]2O)c1 (some centres undefined) | Kd | 86
